- Tested on: LCLC-97TM1
- assayRemarks: relative viability (nuclei count vs DMSO), 5 days (fraction); higher = more cells survive
- reportedConditions: first compound 0.006325 µM
quantity: relative viability

(Q) Please give the measured relative viability for this compound: CC(=O)O[C@@]12CO[C@@H]1C[C@H](O)[C@@]1(C)C(=O)[C@H](O)C3=C(C)[C@@H](OC(=O)[C@H](O)[C@@H](NC(=O)OC(C)(C)C)c4ccccc4)C[C@@](O)([C@@H](OC(=O)c4ccccc4)[C@H]21)C3(C)C [Docetaxel] + N=C(N)NC(=N)NCCc1ccccc1 [Phenformin] (partner 250 µM)
(A) 0.162

* * *

- Test system: NCI-H2170
- assayRemarks: relative viability (nuclei count vs DMSO), 5 days (fraction); higher = more cells survive
- reportedConditions: first compound 0.0002 µM
quantity: relative viability
Answer with a bare number; do not write a unit.

(Q) Please give the measured relative viability for this compound: CC(=O)O[C@@]12CO[C@@H]1C[C@H](O)[C@@]1(C)C(=O)[C@H](O)C3=C(C)[C@@H](OC(=O)[C@H](O)[C@@H](NC(=O)OC(C)(C)C)c4ccccc4)C[C@@](O)([C@@H](OC(=O)c4ccccc4)[C@H]21)C3(C)C [Docetaxel] + O=C(c1cc(Cc2n[nH]c(=O)c3ccccc23)ccc1F)N1CCN(C(=O)C2CC2)CC1 [Olaparib] (partner 8 µM)
(A) 0.611

* * *

- System: Calu-6
- assayRemarks: relative viability (nuclei count vs DMSO), 5 days (fraction); higher = more cells survive
- reportedConditions: first compound 0.5 µM
quantity: relative viability
Answer with a bare number; do not write a unit.

compound="COc1cc2nccc(Oc3ccc(NC(=O)Nc4cc(C)on4)c(Cl)c3)c2cc1OC [Tivozanib] + CC(C)C[C@H](NC(=O)[C@H](Cc1ccccc1)NC(=O)c1cnccn1)B(O)O [Bortezomib] (partner 0.002 µM)" testedsystem=Calu-6 quantity="relative viability" numericvalue=0.95
compound="Nc1ccn([C@@H]2O[C@H](CO)[C@@H](O)[C@@H]2O)c(=O)n1 [Cytarabine] + CS(=O)(=O)N1CCN(Cc2cc3nc(-c4cccc5[nH]ncc45)nc(N4CCOCC4)c3s2)CC1 [Pictilisib] (partner 1 µM)" testedsystem=Calu-6 quantity="relative viability" numericvalue=0.203
compound="Nc1ccn([C@@H]2O[C@H](CO)[C@@H](O)[C@@H]2O)c(=O)n1 [Cytarabine] + C[C@]1(O)C[C@@H](c2nc(-c3ccc4ccc(-c5ccccc5)nc4c3)c3c(N)nccn32)C1 [Linsitinib] (partner 1 µM)" testedsystem=Calu-6 quantity="relative viability" numericvalue=0.283

Turning now to a further record.
(Q) Which measured relative viability belongs to Nc1ccn([C@@H]2O[C@H](CO)[C@@H](O)[C@@H]2O)c(=O)n1 [Cytarabine] + CC1(C)CCC(c2ccc(Cl)cc2)=C(CN2CCN(c3ccc(C(=O)NS(=O)(=O)c4ccc(N[C@H](CCN5CCOCC5)CSc5ccccc5)c(S(=O)(=O)C(F)(F)F)c4)cc3)CC2)C1 [Navitoclax] (partner 0.5 µM) , tested on Calu-6?
(A) 0.22

* * *

- Test system: NCI-H1650
- assayRemarks: relative viability (nuclei count vs DMSO), 5 days (fraction); higher = more cells survive
- reportedConditions: first compound 0.0002 µM
// values below are reported relative viability
Answer with a bare number; do not write a unit.

Below are worked cases with known answers.
molecule="CC(=O)O[C@@]12CO[C@@H]1C[C@H](O)[C@@]1(C)C(=O)[C@H](O)C3=C(C)[C@@H](OC(=O)[C@H](O)[C@@H](NC(=O)OC(C)(C)C)c4ccccc4)C[C@@](O)([C@@H](OC(=O)c4ccccc4)[C@H]21)C3(C)C [Docetaxel] + Cc1cc(Nc2cc(N3CCN(C)CC3)nc(Sc3ccc(NC(=O)C4CC4)cc3)n2)n[nH]1 [Tozasertib] (partner 0.1 µM)" quantity="relative viability" numericvalue=0.386
molecule="CC(=O)O[C@@]12CO[C@@H]1C[C@H](O)[C@@]1(C)C(=O)[C@H](O)C3=C(C)[C@@H](OC(=O)[C@H](O)[C@@H](NC(=O)OC(C)(C)C)c4ccccc4)C[C@@](O)([C@@H](OC(=O)c4ccccc4)[C@H]21)C3(C)C [Docetaxel] + COc1cc2c(Oc3ccc(NC(=O)C4(C(=O)Nc5ccc(F)cc5)CC4)cc3F)ccnc2cc1OCCCN1CCOCC1 [Foretinib] (partner 0.25 µM)" quantity="relative viability" numericvalue=1.07
molecule="CC(=O)O[C@@]12CO[C@@H]1C[C@H](O)[C@@]1(C)C(=O)[C@H](O)C3=C(C)[C@@H](OC(=O)[C@H](O)[C@@H](NC(=O)OC(C)(C)C)c4ccccc4)C[C@@](O)([C@@H](OC(=O)c4ccccc4)[C@H]21)C3(C)C [Docetaxel] + C[C@@H](Oc1cc(-c2cnn(C3CCNCC3)c2)cnc1N)c1c(Cl)ccc(F)c1Cl [Crizotinib] (partner 1 µM)" quantity="relative viability" numericvalue=0.906
molecule="CC(=O)O[C@@]12CO[C@@H]1C[C@H](O)[C@@]1(C)C(=O)[C@H](O)C3=C(C)[C@@H](OC(=O)[C@H](O)[C@@H](NC(=O)OC(C)(C)C)c4ccccc4)C[C@@](O)([C@@H](OC(=O)c4ccccc4)[C@H]21)C3(C)C [Docetaxel] + CC(=O)Nc1cccc(-n2c(=O)n(C3CC3)c(=O)c3c(Nc4ccc(I)cc4F)n(C)c(=O)c(C)c32)c1 [Trametinib] (partner 0.02 µM)" quantity="relative viability" numericvalue=0.392

Turning now to a further record.
(Q) Please give the measured relative viability for this molecule: CC(=O)O[C@@]12CO[C@@H]1C[C@H](O)[C@@]1(C)C(=O)[C@H](O)C3=C(C)[C@@H](OC(=O)[C@H](O)[C@@H](NC(=O)OC(C)(C)C)c4ccccc4)C[C@@](O)([C@@H](OC(=O)c4ccccc4)[C@H]21)C3(C)C [Docetaxel] + CS(=O)(=O)N1CCN(Cc2cc3nc(-c4cccc5[nH]ncc45)nc(N4CCOCC4)c3s2)CC1 [Pictilisib] (partner 1 µM)
(A) 0.431
